Origin of the recorded values: patent US20180118721A1

pKd: −log10 of the molar value.
Dear all, this message contains pKd results, target or system humanMTH1 (aminoacids 42 to 197) (Homo sapiens, UniProt P36639).

// solved cases for pKd follow
compound	targetOrTestSystem	result
Nc1nc(NC2CC2)cc(N2CCC[C@H]2Cc2ccccc2Cl)n1	humanMTH1 (aminoacids 42 to 197) (Homo sapiens, UniProt P36639)	7.00 to 9.00
C[C@@H]1C(c2ccccc2)CCN1c1cc(NC2CC2)nc(N)n1 (stereo in doubt)	humanMTH1 (aminoacids 42 to 197) (Homo sapiens, UniProt P36639)	7.00 to 9.00
CNc1cc(N2CCCCC2Cc2ccccc2Cl)nc(N)n1 (stereo not drawn)	humanMTH1 (aminoacids 42 to 197) (Homo sapiens, UniProt P36639)	7.00 to 9.00
CNc1cc(N2CCCC2Cc2cccc(C)c2)nc(N)n1 (stereo not drawn)	humanMTH1 (aminoacids 42 to 197) (Homo sapiens, UniProt P36639)	7.00 to 9.00
Nc1nc(NC2CC2)cc(N2CCCC2CC(=O)O)n1 (stereo not drawn)	humanMTH1 (aminoacids 42 to 197) (Homo sapiens, UniProt P36639)	< 7.00

The compound "C=CC(=O)Nc1ccc(CCNC(=O)C2CCN(c3cc(NC)nc(N)n3)CC2)cc1" , when measured on humanMTH1 (aminoacids 42 to 197) (Homo sapiens, UniProt P36639), yielded pKd of 7.00 to 9.00

The compound "Nc1nc(NC2CC2)cc(N2CC[C@@H](O)C2)n1" , when measured on humanMTH1 (aminoacids 42 to 197) (Homo sapiens, UniProt P36639), yielded pKd of 7.00 to 9.00

The compound CNc1cc(N2CCCCC2Cc2ccccc2OC)nc(N)n1 (single isomer, unassigned) [Example 107] , when measured on humanMTH1 (aminoacids 42 to 197) (Homo sapiens, UniProt P36639), yielded pKd of 7.00 to 9.00

The compound "C[C@H]1C[C@@H](O)CN1c1cc(NC2CC2)nc(N)n1" , when measured on humanMTH1 (aminoacids 42 to 197) (Homo sapiens, UniProt P36639), yielded pKd of > 9.00

---

- targetOrTestSystem: purified human recombinant MTH1 (human MTH1, residues 42-197) (Homo sapiens)
- Construct: human MTH1, residues 42-197, Uniprot-ID: P36639, expressed in E. coli; made in house; host or cells: E. coli
- runDescription: MTH1 enzymatic assay (luminescence-based, PPiLight)
- Assay type: biochemical
- measurementParameters: 6 μM 8-oxo-dGTP, Table 1, grouped
quantityMeasured: IC50

// solved cases for IC50 follow
molecule	quantityMeasured	result
C=CC(=O)Nc1ccc(CCNC(=O)C2CCN(c3cc(NC)nc(N)n3)CC2)cc1 [Example 113]	IC50	1 to 100 nM
Nc1nc(NC2CC2)cc(N2CCCC2=O)n1 [Example 94]	IC50	> 100 nM
Nc1nc(NC2CC2)cc(N2CCC[C@@H]2CO)n1 [Example 11]	IC50	1 to 100 nM

Entry Nc1nc(NC2CC2)cc(N2CCC(CO)C2)n1 (centres unmarked) [Example 2] ; IC50 = < 1 nM

Entry Nc1nc(NCC2CC2)cc(N2CCC(F)(F)C2)n1 [Example 71] ; IC50 = 1 to 100 nM

---

Listed compounds paired with reported solubility at 24 h
- runDescription: Shake flask solubility measurement
- Type: physicochemical
- measurementParameters: aqueous buffer, thermodynamic from solid, phosphate buffer pH 7.4, 37° C.

// solved cases for solubility at 24 h follow
compound	solubility at 24 h
CNc1cc(N2CCC(O)C2)nc(N)n1 (centres unmarked)	> 1000 µg/mL
CNc1cc(N2CCC[C@@H]2CO)nc(N)n1	> 1000 µg/mL
CNc1cc(-c2cccc(Cl)c2Cl)nc(N)n1 [TH-287, reference compound]	22 µg/mL
CNc1cc(N2CCC(F)(F)C2)nc(N)n1	> 1000 µg/mL

Entry NC(=O)C1CCN(c2cc(NC3CC3)nc(N)n2)C1 (centres unmarked) ; solubility at 24 h = > 1000 µg/mL
